The reported measurements were obtained from PubChem BioAssay.

measuredOn: Follistatin-related protein 3 (Homo sapiens) (UniProt O95633)
Sequence (O95633 whole entry, looked up): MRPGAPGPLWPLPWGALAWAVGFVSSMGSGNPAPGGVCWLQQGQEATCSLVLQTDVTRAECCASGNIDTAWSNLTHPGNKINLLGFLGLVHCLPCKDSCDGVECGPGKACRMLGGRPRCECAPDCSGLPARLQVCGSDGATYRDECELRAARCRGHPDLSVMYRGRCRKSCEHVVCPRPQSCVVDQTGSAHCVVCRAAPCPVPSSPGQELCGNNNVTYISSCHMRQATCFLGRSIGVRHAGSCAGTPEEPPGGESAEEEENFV
protocolText: FSTL3 binders on small-molecule microarrays, primary screen, biochemical, small-molecule microarray, 635 nm fluorescence (AID 1105);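 also: score merges emission near 667 nm and signal to noise per printed spot across three slides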
conditionsUsed: FSTL3 binding, higher = more signal
Categorized via composite z-score: low: < 0.2; medium: ≥ 0.2 and < 0.8; high: ≥ 0.8

molecule | assignedLabel
COc1ccc([Si](C)(C)[C@@H]2[C@@H](CCO)O[C@]3(C(=O)N(Cc4ccccc4)c4ccc(N5C(=O)c6ccccc6Oc6ccccc65)cc43)[C@H]2C)cc1 | low
COc1ccc(C(O)C2C=CC3C(=O)N(C)C(=O)C3N2Nc2ccc([N+](=O)[O-])cc2[N+](=O)[O-])cc1OCc1ccccc1 (stereo not drawn) | high
C[C@H]1NC(=O)C([C@@H](C)OCc2ccccc2)NC(=O)[C@@]23C(=O)N[C@@H](Cc4ccccc4)C2[C@H](C)[C@@]2(C)O[C@H]2C3/C=C/C/C=C\CNC1=O (stereo partly drawn) | medium
C=CCC(OC(C)=O)[C@@H]1[C@@H](N(Cc2ccc(-c3cccc(C(F)(F)F)c3)o2)C(=O)Cc2ccc(F)cc2)c2cc(OCCCO)ccc2N1C(=O)c1ccc2ccccc2n1 (stereo partly drawn) | low
CN1C(=O)C2C=CC(C(O)c3ccc(-c4ccccc4)s3)N(Nc3ccccc3)C2C1=O (stereo not drawn) | high
COC(=O)[C@@]1(Cc2ccc(F)cc2)[C@H]2c3cc(C(=O)N(C)C)n(CCN4CCOCC4)c3C[C@H]2CN1C(=O)c1ccccc1 | low
CCOC(=O)C[C@H]1[C@H](OC(=O)Cc2ccc3c(c2)OCO3)[C@@H](NC(=O)c2ccccc2)c2cc(OCCCO)ccc2N1C(=O)Cc1ccc(OC)cc1 | medium
COCCOC(=O)N1C(=O)[C@@]2(c3cc(C#CC4(O)CCCCCC4)ccc31)[C@H](C(=O)N1CCc3cc(OC)c(OC)cc3C1)[C@H]1C(=O)O[C@H](c3ccccc3)[C@H](c3ccccc3)N1[C@@H]2c1ccc(O)cc1 | high
CCCC=C(CCC)[C@@H](NS(=O)(=O)c1ccc(Cl)cc1)c1ccccc1 | low
NC(=O)NCC#Cc1ccc2c(c1)[C@]1(C(=O)N2)[C@H](C(=O)N2CCCCCCC2)[C@H]2C(=O)O[C@H](c3ccccc3)[C@H](c3ccccc3)N2[C@@H]1c1ccc(O)cc1 | high
COc1cc2c(cc1O)C(C1CC1)N(Cc1ccc([N+](=O)[O-])o1)CC2 (stereo not drawn) | medium
CC(=O)NCCCC[C@@H]1NC(=O)[C@@H]2C[C@H](C(=O)NCCCCCC[N+](C)(C)C)[C@H](c3ccc(O)cc3)N2C1=O | high

====

measuredOn: Torsin-1A (Homo sapiens)
protocolText: torsin A binders from cell lysate, primary screen, small-molecule microarray, wild-type, 635/667 nm (AID 1149)
conditionsUsed: COS7 hTOR1A-WT lysate, 635 nm fluorescence, higher = more signal
Decide using composite z-score: a value greater than or equal to 0.05 is YES, a smaller one is NO.

compound | assignedLabel
COCCOC(=O)N1C(=O)[C@@]2(c3ccccc31)[C@H](C(N)=O)[C@H]1C(=O)O[C@H](c3ccccc3)[C@H](c3ccccc3)N1[C@@H]2c1ccc(OCCO)cc1 | YES
COCCOC(=O)N1C(=O)[C@@]2(c3cc(C#CCCO)ccc31)[C@H](c1ccc(O)cc1)N1[C@H](c3ccccc3)[C@H](c3ccccc3)OC(=O)[C@H]1[C@@H]2C(=O)N1CCc2cc(OC)c(OC)cc2C1 | YES
COCCOC(=O)N1C(=O)[C@@]2(c3cc(C#CC4=CCCCC4)ccc31)[C@H](C(=O)N1CCN(c3ncccn3)CC1)[C@H]1C(=O)O[C@H](c3ccccc3)[C@H](c3ccccc3)N1[C@@H]2c1ccccc1OCCO | YES
CN(C)CCCCNC(=O)[C@H]1C[C@H]2C(=O)N[C@@H](Cc3ccccc3)C(=O)N2[C@H]1c1cccc(OCCO)c1 | NO
COC(=O)[C@@]1(Cc2ccccc2)[C@@H]2[C@@H](CC(=O)[C@H]2CC(=O)C(=O)N(C)C)CN1C(=O)c1ccccc1 | NO
COCCCNC(=O)[C@@H]1c2ccccc2C(=O)N(C2CCCCC2)[C@H]1c1ccc(CO)cc1 | YES
CC(C)(C)OC(=O)CC[C@]1(C(=O)N2CCOCC2)N=C(c2ccc(OCCCO)cc2)O[C@H]1c1ccccc1CN=[N+]=[N-] | YES
C=CCOC(=O)[C@H]1[C@@H]2C(=O)O[C@@H](c3ccccc3)[C@@H](c3ccccc3)N2[C@@H](c2ccc(OCCOC(=O)[C@@H]3C[C@@H]4C(=O)N[C@@H](Cc5ccccc5)C(=O)N4[C@@H]3c3ccc(O)cc3)cc2)[C@]12C(=O)Nc1ccccc12 | YES
O=C1N(Cc2ccccc2)c2ccccc2[C@H]2OC(c3ccc(OCCCO)cc3)=N[C@@]12Cc1ccccc1 | NO
CC1(C)OC[C@@]23C=C(Br)[C@@H](C[C@H]12)[C@@]1(CO1)C3=O | YES
C#CCN(C/C=C/c1ccccc1)[C@H](CO[Si](C)(C)C(C)(C)C)c1ccccc1 | NO
C=C(C(=O)CC[C@@H](OC(C)=O)c1cccc(OCCO)c1)C(C)C | YES
C=CCC(OC(C)=O)[C@@H]1[C@@H](N(Cc2ccc(-c3cccc(C(F)(F)F)c3)o2)C(=O)Cc2ccc(OC)cc2)c2cc(OCCCO)ccc2N1C(=O)c1ccc2ccccc2n1 (some centres undefined) | YES
